Data credit: patent US20260201008A1

# pEC50 hGLPR1 per entry
target-or-system: human GLP-1 receptor (hGLP1R) (human, UniProt P43220 24-463)
assay-comment: cell-based or functional assay
Numbered stars: 1 amine (or outer) side, 2 acyl side, 3 side chain; on linkers, the order of the positions; unused ones are H or OH. Square brackets hold non-standard residues; d marks the D form. Side chains are listed from the residue outwards. Ends that are not written are not given here. * marks the point of attachment. C20 diacid = O=C(O)CCCCCCCCCCCCCCCCCCC(=O)*; γGlu = O=C(O)[C@H](CCC(=O)[*:2])N[*:1]; AEEA = NCCOCCOCC(=O)O; Aib = CC(C)(N)C(=O)O

pEC50 hGLPR1 lookup needed for H[Aib]VGTFTSDVSYLKEEA[Aib]LQRFLEHLV-NH2 (not fully specified (residue 14)) [SEQ ID NO: 155] , thanks.
10.9 -log M

pEC50 hGLPR1 lookup needed for H[Aib]EGTFTSDVSRLK([AEEA-AEEA-γGlu-C20 diacid])EEAATQRFLEHLV-NH2 [SEQ ID NO: 65] , thanks.
11.5 -log M

pEC50 hGLPR1 lookup needed for H[Aib]EGTFTSDVSELKEEAAAQRFLEHLV-NH2 (not fully specified (residue 14)) [SEQ ID NO: 98] , thanks.
10.6 -log M

pEC50 hGLPR1 lookup needed for H[Aib]EGTFTSDVSELKELAAQQRFLEHLV-NH2 (not fully specified (residue 14)) [SEQ ID NO: 99] , thanks.
10.8 -log M

pEC50 hGLPR1 lookup needed for H[Aib]EGTFTSDVSELK([AEEA-AEEA-γGlu-C20 diacid])E[Aib]AA[Aib]QRFLEHLV-NH2 [SEQ ID NO: 7] , thanks.
10.2 -log M
